System: HOP-62 NSCLC
Experiment: NCI tumour cell line growth inhibition, 48 h
Please respond with reported TGI for every item in the list.
Numbers only, in µM.

Known TGI results, listed for orientation:
>>> print(df.to_string())
                                   compound  target_or_test_system  assay_result
0  Cc1ccc(Nc2oc(-c3ccccc3)nc2[P+](c2ccccc2)(c2ccccc2)c2ccccc2)cc1           HOP-62 NSCLC          3.24
1  CC(C)[Si]1(C(C)C)OCC2OC3(CO)C(Oc4nc(=O)ccn43)C2O[Si](C(C)C)(C(C)C)O1 (stereo not given)           HOP-62 NSCLC          29.2

As a next step, examine the compound that follows.
Ask | TGI lookup needed for `S=c1[nH]c2c(Cl)c(Cl)c(Cl)c(Cl)c2[nH]1` , thanks.
Reply | 80.2
